Assay: Clearance in CD-1 mouse at 3 mg/kg, iv by LC-MS/MS analysis
Type: ADME, organism-based
Settings: in vivo
VALUE_TYPE: clearance (mL/min/kg)
Give bare numbers, in mL/min/kg.

Answer with the recorded clearance of `O=C(O)CCCSc1nnc(-c2ccc(C3CC3)cc2Cl)o1` only. 15.4

---

Assay: Clearance in CD-1 mouse at 10 mg/kg, iv by LC-MS/MS analysis
Assay type: ADME, organism-based
Settings: in vivo
VALUE_TYPE: clearance (mL/min/kg)
One number for each entry, in mL/min/kg.

Answer with the recorded clearance of `O=C(O)CCCSc1nnc(-c2ccc(Cl)cc2Cl)o1` only. 15.5
